- Test system: Rattus norvegicus
- PROCEDURE_SUMMARY: Anticonvulsant activity in albino Sprague-Dawley rat assessed as protection against maximal electroshock-induced seizures at 50 mg/kg, po after 1 hr
- Format: functional
Active and inactive are the calls of the source. The calls are words filed in the database; no cut-off is given here.

[
  {
    "RECORD_SMILES": "CC1(C)C(C)(C)C1(C)C(=O)O",
    "Activity": "inactive"
  },
  {
    "RECORD_SMILES": "CC1(C)C(C)(C)C1(F)C(N)=O",
    "Activity": "inactive"
  },
  {
    "RECORD_SMILES": "CC1(C)C(C)(C)C1(F)C(=O)O",
    "Activity": "inactive"
  },
  {
    "RECORD_SMILES": "CC1(C)C(C)(C)C1(C)C(N)=O",
    "Activity": "inactive"
  },
  {
    "RECORD_SMILES": "CC1(C)C(C)(C)C1(Cl)C(N)=O",
    "Activity": "75%"
  }
]

====

- Test system: Mus musculus
- PROCEDURE_SUMMARY: Neurotoxicity in CF1 albino mouse at 30 mg/kg, ip after 0.5 hrs
- Assay type: toxicity, organism-based
- Set-up: dose 30 mg/kg, route intraperitoneal
- STATED_CONDITIONS: in vivo
QUANTITY_KIND: Activity

[
  {
    "RECORD_SMILES": "CC1(C)C(C)(C)C1(C)C(N)=O",
    "EXPERIMENTAL_RESULT": "Non-toxic"
  },
  {
    "RECORD_SMILES": "CC1(C)C(C)(C)C1(F)C(=O)NC(N)=O",
    "EXPERIMENTAL_RESULT": "Non-toxic"
  },
  {
    "RECORD_SMILES": "CC1(C)C(C)(C)C1(Cl)C(N)=O",
    "EXPERIMENTAL_RESULT": "Non-toxic"
  },
  {
    "RECORD_SMILES": "CC1(C)C(C)(C)C1(F)C(=O)O",
    "EXPERIMENTAL_RESULT": "Non-toxic"
  },
  {
    "RECORD_SMILES": "CC1(C)C(C)(C)C1(C)C(=O)O",
    "EXPERIMENTAL_RESULT": "Non-toxic"
  },
  {
    "RECORD_SMILES": "CC1(C)C(C)(C)C1(F)C(N)=O",
    "EXPERIMENTAL_RESULT": "Non-toxic"
  },
  {
    "RECORD_SMILES": "CC1(C)C(C)(C)C1(Cl)C(=O)O",
    "EXPERIMENTAL_RESULT": "Non-toxic"
  }
]

====

- Test system: Rattus norvegicus
- PROCEDURE_SUMMARY: Anticonvulsant activity in albino Sprague-Dawley rat assessed as protection against scMet-induced seizures at 50 mg/kg, po after 4 hrs
- Assay type: functional
Active and inactive are the calls of the source. The calls are words filed in the database; no cut-off is given here.

[
  {
    "RECORD_SMILES": "CC1(C)C(C)(C)C1(Cl)C(N)=O",
    "Activity": "inactive"
  },
  {
    "RECORD_SMILES": "CC1(C)C(C)(C)C1(C)C(N)=O",
    "Activity": "inactive"
  },
  {
    "RECORD_SMILES": "CC1(C)C(C)(C)C1(C)C(=O)O",
    "Activity": "25%"
  },
  {
    "RECORD_SMILES": "CC1(C)C(C)(C)C1(F)C(N)=O",
    "Activity": "50%"
  },
  {
    "RECORD_SMILES": "CNC(=O)C1(F)C(C)(C)C1(C)C",
    "Activity": "inactive"
  },
  {
    "RECORD_SMILES": "CC1(C)C(C)(C)C1(F)C(=O)O",
    "Activity": "inactive"
  }
]
